# testedTarget: Hypoxia-inducible factor 1-alpha (Homo sapiens)
# Sequence (Q16665 whole entry): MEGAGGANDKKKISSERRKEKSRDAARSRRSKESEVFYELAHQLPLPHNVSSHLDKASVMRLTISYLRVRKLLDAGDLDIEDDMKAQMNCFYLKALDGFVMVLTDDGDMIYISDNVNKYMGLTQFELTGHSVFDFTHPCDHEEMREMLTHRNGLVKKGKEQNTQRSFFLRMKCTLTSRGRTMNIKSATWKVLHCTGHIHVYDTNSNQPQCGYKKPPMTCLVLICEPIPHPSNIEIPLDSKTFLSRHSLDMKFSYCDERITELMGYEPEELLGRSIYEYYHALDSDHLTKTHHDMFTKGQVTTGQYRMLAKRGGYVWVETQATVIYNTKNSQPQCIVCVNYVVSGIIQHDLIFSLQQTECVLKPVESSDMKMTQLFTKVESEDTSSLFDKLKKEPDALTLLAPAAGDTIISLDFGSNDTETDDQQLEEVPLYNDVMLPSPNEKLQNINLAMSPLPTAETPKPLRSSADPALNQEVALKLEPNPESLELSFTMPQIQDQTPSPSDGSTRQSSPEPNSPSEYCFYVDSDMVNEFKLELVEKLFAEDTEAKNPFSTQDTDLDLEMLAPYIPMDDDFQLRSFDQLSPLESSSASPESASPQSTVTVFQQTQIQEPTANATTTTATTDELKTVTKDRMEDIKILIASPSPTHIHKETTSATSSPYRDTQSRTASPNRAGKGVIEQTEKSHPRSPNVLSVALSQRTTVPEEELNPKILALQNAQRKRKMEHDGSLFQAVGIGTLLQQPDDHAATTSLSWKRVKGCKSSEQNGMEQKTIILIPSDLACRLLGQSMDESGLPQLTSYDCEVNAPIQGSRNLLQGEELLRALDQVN
# testDescription: Inhibition of HIF1alpha transcriptional activity in hypoxia-induced human HCCLM3 cells co-transfected with luciferase reporter plasmid containing five copies of HREs and pRL-SV40 plasmid encoding Renilla luciferase incubated with compound under normoxia for 1 hr followed by hypoxia induction and measured after 24 hrs by HRE-dependent dual luciferase reporter gene assay
readoutName: IC50
Please answer in the form of a number followed by its unit of measurement.

O=C(NCCc1ccccc1Cl)c1ccc(-c2ccccc2)cn1 | 9.84 µM
Nc1ccc(CCNC(=O)c2ccc(-c3ccccc3)cn2)cc1 | 11.6 µM
O=C(NCCc1ccccc1F)c1ccc(-c2ccsc2)cn1 | 1.41 µM
COC(=O)c1ccc(O)c(NC(=O)COc2ccc(C34CC5CC(CC(C5)C3)C4)cc2)c1 | 3.08 µM
O=C(NCCc1ccncc1)c1nccc(-c2ccccc2)n1 | 10 µM

O=C(NCCc1cccc(Cl)c1)c1ccc(-c2ccccc2)cn1 has a reported IC50 of 9.84 µM

So, O=C(NCCc1ccncc1)c1ccc(-c2ccccc2)cn1 ? Its IC50 was 13.8 µM

Given item O=C(NCCc1ccccc1F)c1ccc(-c2ccccc2F)cn1 , the value recorded as its IC50 is 2.16 µM

Entry O=C(NCCc1ccccc1F)c1ccc(-c2ccoc2)cn1 ; IC50 = 4.24 µM

Entry O=C(NCCc1ccccc1)c1ccc(-c2ccccc2)cn1 ; IC50 = 4.56 µM

Notebook: Cc1nc(C(=O)NCCc2ccccc2)cs1 , IC50 read as 55.7 µM

---

# testedTarget: Hypoxia-inducible factor 1-alpha (Homo sapiens)
# testDescription: Inhibition of HIF1alpha transcriptional activity in hypoxia-induced human HCCLM3 cells co-transfected with luciferase reporter plasmid containing five copies of HREs and pRL-SV40 plasmid encoding Renilla luciferase incubated with compound under normoxia for 1 hr followed by hypoxia induction and measured after 24 hrs by HRE-dependent dual luciferase reporter gene assay
Known IC50 of a selection of compounds
API: value field is a number in nM; no unit string.

O=C(NCCc1ccccc1Cl)c1ccc(-c2ccccc2)cc1 | 2870

For record COc1ccccc1-c1ccc(C(=O)NCCc2ccccc2F)nc1 the listed IC50 is 320

# IC50 (compound: N#Cc1ccccc1-c1ccc(C(=O)NCCc2ccccc2F)nc1 ) is 8530

Looking up O=C(NCCc1ccncc1)c1nnc(-c2ccccc2)o1 , I found its IC50 recorded as 7320

// IC50 value for O=C(NCCc1ccccc1F)c1ccc(-c2ccccc2)cn1 : 930

So, O=C(NCCc1ccccc1F)c1ccc(-c2cccs2)cn1 ? Its IC50 was 2480
